Source: the supplement of paper PMC12855868

B1: library; numbered along this chain (parent)
chain: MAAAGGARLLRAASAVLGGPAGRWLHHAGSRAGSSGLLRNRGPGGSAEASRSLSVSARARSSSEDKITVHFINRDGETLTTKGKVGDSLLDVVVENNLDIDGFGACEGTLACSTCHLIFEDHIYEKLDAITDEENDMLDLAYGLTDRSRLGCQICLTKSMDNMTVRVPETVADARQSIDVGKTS

Variants of: B1
Assay: scaled log2 fold change in cell abundance, elesclomol vs control (0 = silent mean, 1 = nonsense mean) (scaled log2 ratio); higher = higher viability under elesclomol (loss of FDX1 cuproptosis function);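 also: variant abundance is its share of total variant reads in each endpoint sample, from next-generation sequencing of the integrated ORF PCR-amplified out of genomic DNA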
Details: with ABC1 FDX1 KO; elesclomol 5 nM; glucose 10 mM; 14 days

>  <change>
D161M

>  <scaled log2 fold change>
-0.0698

$$$$
>  <change>
H116R

>  <scaled log2 fold change>
-0.042

$$$$
>  <change>
L150G

>  <scaled log2 fold change>
0.757

$$$$
>  <change>
R60P

>  <scaled log2 fold change>
-0.332

$$$$
>  <change>
L156S

>  <scaled log2 fold change>
0.388

$$$$
>  <change>
G143H

>  <scaled log2 fold change>
-0.162

$$$$
>  <change>
C152N

>  <scaled log2 fold change>
1

$$$$
>  <change>
Q153P

>  <scaled log2 fold change>
0.884

$$$$
>  <change>
A49K

>  <scaled log2 fold change>
0.256

$$$$
>  <change>
A32N

>  <scaled log2 fold change>
-0.064

$$$$
>  <change>
L117H

>  <scaled log2 fold change>
1.03

$$$$
>  <change>
T170H

>  <scaled log2 fold change>
-0.102

$$$$
>  <change>
E48V

>  <scaled log2 fold change>
0.47

$$$$
>  <change>
C152R

>  <scaled log2 fold change>
1.08

$$$$
>  <change>
E77W

>  <scaled log2 fold change>
0.139

$$$$
>  <change>
L138H

>  <scaled log2 fold change>
0.199

$$$$
>  <change>
A105S

>  <scaled log2 fold change>
-0.302

$$$$
>  <change>
D173S

>  <scaled log2 fold change>
0.248

$$$$
>  <change>
V171W

>  <scaled log2 fold change>
0.0569

$$$$
>  <change>
K66R

>  <scaled log2 fold change>
0.114

$$$$
>  <change>
G5I

>  <scaled log2 fold change>
0.0847

$$$$
>  <change>
R149P

>  <scaled log2 fold change>
1.05

$$$$
>  <change>
C112F

>  <scaled log2 fold change>
1.02

$$$$
>  <change>
M137D

>  <scaled log2 fold change>
0.813

$$$$
>  <change>
A57I

>  <scaled log2 fold change>
0.296

$$$$
>  <change>
L9R

>  <scaled log2 fold change>
0.455

$$$$
>  <change>
S14P

>  <scaled log2 fold change>
0.707

$$$$
>  <change>
S30I

>  <scaled log2 fold change>
0.0124

$$$$
>  <change>
C115R

>  <scaled log2 fold change>
1.02

$$$$
>  <change>
A49Y

>  <scaled log2 fold change>
0.29

$$$$
>  <change>
E95A

>  <scaled log2 fold change>
0.102

$$$$
>  <change>
A174R

>  <scaled log2 fold change>
-0.108

$$$$
>  <change>
I100C

>  <scaled log2 fold change>
-0.292

$$$$
>  <change>
S14D

>  <scaled log2 fold change>
0.306

$$$$
>  <change>
I178P

>  <scaled log2 fold change>
-0.0627

$$$$
>  <change>
D132G

>  <scaled log2 fold change>
-0.0468

$$$$
